Attribution: ChEMBL document CHEMBL5550171

Test system: MCF7
assay.method.text: Antiproliferative activity against human MCF7 cells assessed as reduction in cell growth incubated for 72 hrs by CCK-8 assay
Assay type: functional, cell-based
experimental.conditions: MCF7, 72 h
reported.endpoint: pIC50
// scale note: pIC50 = -log10(conc_M); give the bare number

Exercise: So what's the measured pIC50 for this one? O=C(CCCc1ccc(N(CCCl)CCCl)cc1)N1CCN(C(=O)c2cc(Cc3n[nH]c(=O)c4ccccc34)ccc2F)CC1
Key: 4.51

* * *

System: MCF7
assay.method.text: Antiproliferative activity against human MCF7 cells assessed as reduction in cell viability incubated for 72 hrs by MTT assay
Type: functional, cell-based
experimental.conditions: MCF7, 72 h
reported.endpoint: IC50

Exercise: What does the data say about its IC50? Entry: CCOC(=O)c1ccc(NC(=O)CS/C(=C\C(=O)c2sc(Nc3ccccn3)nc2C)c2ccccc2F)cc1
Key: 2790 nM
